test system: SARS-CoV-2, isolate USA-WA1/2020; experiment: microbe, parasite or virus in culture; format: cell-based; settings: HeLa-ACE2 SARS-CoV-2 antiviral effect without P-gp inhibitor; minimum measured response of dose series
propertyMeasured: perc_min_measured (%)
State the answer as a number, implicitly in %.

Examples from the recorded data:
1) C[C@@H](C(=O)O)[C@H](NC(=O)c1ncnc2[nH]ccc12)c1ccc(Br)cc1: 44.709
2) Cc1nn(C)cc1-c1cc2c(N[C@H](c3ccc4c(c3)S(=O)(=O)CCC4)C(C)C)ncnc2[nH]1 (single isomer, unassigned): 93.649
3) CC(C)[C@@H](Nc1ncnc2[nH]c(-c3cnn(CC(N)=O)c3)cc12)c1ccc2c(c1)OCCO2: 73.654
4) CCNC(=O)c1cc2c(N[C@@H](c3ccc4c(c3)S(=O)(=O)NCC4)C(C)C)ncnc2[nH]1: 78.382

Task: SARS-CoV-2, isolate USA-WA1/2020 / perc_min_measured / C[C@H](C(=O)O)[C@@H](NC(=O)c1ncnc2[nH]ccc12)c1ccc(Br)cc1 : value?
Output: 71.809

Task: SARS-CoV-2, isolate USA-WA1/2020 / perc_min_measured / CC(C)[C@H](Nc1ncnc2[nH]c(-c3cnn(C)c3C#N)cc12)c1ccc2c(c1)NC(=O)CO2 (single isomer, unassigned) : value?
Output: 6.652

Task: SARS-CoV-2, isolate USA-WA1/2020 / perc_min_measured / CC(C)C(Nc1ncnc2[nH]c(C(=O)NC3CCN(C)C3)cc12)c1ccc2c(c1)S(=O)(=O)CCC2 (stereo not shown) : value?
Output: 87.557

Task: SARS-CoV-2, isolate USA-WA1/2020 / perc_min_measured / COc1ccc([C@@H](Cc2nnn[nH]2)NC(=O)c2ncnc3[nH]ccc23)cc1 : value?
Output: 93.837

Task: SARS-CoV-2, isolate USA-WA1/2020 / perc_min_measured / CC(C)[C@@H](Nc1ncnc2[nH]c(C(=O)N[C@H]3CCN(C)C3)cc12)c1ccc2c(c1)S(=O)(=O)CCC2 (single isomer, unassigned) : value?
Output: 84.181

Task: SARS-CoV-2, isolate USA-WA1/2020 / perc_min_measured / CNC(=O)c1cccc(-c2cc3c(N[C@H](c4ccc5c(c4)S(=O)(=O)CCC5)C(C)C)ncnc3[nH]2)c1 (single isomer, unassigned) : value?
Output: 84.591

Task: SARS-CoV-2, isolate USA-WA1/2020 / perc_min_measured / CC(C)[C@@H](Nc1ncnc2[nH]c(-c3cnn(CC(=O)N(C)C)c3)cc12)c1ccc2c(c1)S(=O)(=O)CCC2 (racemic) : value?
Output: 84.991

Task: SARS-CoV-2, isolate USA-WA1/2020 / perc_min_measured / CC(C)(C)[C@H](Nc1ncnc2[nH]c(-c3cnn(CC(N)=O)c3)cc12)c1ccc2c(c1)OCCO2 (single isomer, unassigned) : value?
Output: 91.129

Task: SARS-CoV-2, isolate USA-WA1/2020 / perc_min_measured / CC(C)[C@@H](Nc1ncnc2[nH]c(-c3cnn(C)c3)cc12)c1ccc2c(c1)S(=O)(=O)CCC2 (single isomer, unassigned) : value?
Output: 72.714

----------
clint overview
test: In vitro mouse hepatocyte stability; assay type: in vitro ADME
State the answer as a number, implicitly in uL/min/1E6 cells.

Task: Value lookup for clint; key = CC(C)[C@H](Nc1ncnc2[nH]ccc12)c1ccc2c(c1)S(=O)(=O)CCC2
Output: 567.0

Task: Value lookup for clint; key = Cn1ncc(-c2cc3c(N[C@@H](c4ccc5c(n4)OCCO5)C(C)(C)C)ncnc3[nH]2)c1C#N
Output: 292.0

Task: Value lookup for clint; key = CC(C)[C@H](Nc1ncnc2[nH]c(-c3cnn(C)c3C#N)cc12)c1ccc2c(n1)OCCO2
Output: 91.6

Task: Value lookup for clint; key = CC(C)[C@@H](Nc1ncnc2[nH]c(-c3cnn(C)c3C#N)cc12)c1ccc2c(n1)OCCO2
Output: 217.0

Task: Value lookup for clint; key = CNCc1cc(-c2cc3c(N[C@@H](c4ccc5c(c4)S(=O)(=O)CCC5)C(C)C)ncnc3[nH]2)co1
Output: 74.7

Task: Value lookup for clint; key = COc1ccc([C@H](Cc2nnn[nH]2)NC(=O)c2ncnc3[nH]ccc23)cc1
Output: 4.6

Task: Value lookup for clint; key = CC(C)C(Nc1ncnc2[nH]c(C(=O)NC3CCN(C)C3)cc12)c1ccc2c(c1)S(=O)(=O)CCC2 (centres unmarked)
Output: 61.0

Task: Value lookup for clint; key = C[C@H](C(=O)O)[C@@H](NC(=O)c1ncnc2[nH]ccc12)c1ccc(Br)cc1
Output: 4.35

----------
assay: Hepatic microsomal stability, MLM; assay type: in vitro ADME; conditions: In vitro mouse liver microsomal stability, no cofactor
propertyMeasured: perc_remaining_no_cofactor (%)
State the answer as a number, implicitly in %.

Examples from the recorded data:
1. CC(C)[C@@H](Nc1ncnc2[nH]c(-c3cnn(CC(N)=O)c3)cc12)c1ccc2c(c1)S(=O)(=O)CCC2: 111.0
2. CC(C)[C@@H](Nc1ncnc2[nH]c(-c3cnn(C)c3)cc12)c1ccc2c(c1)S(=O)(=O)CCC2 (single isomer, unassigned): 102.0
3. Cc1nn(C)cc1-c1cc2c(NC(c3ccc4c(c3)S(=O)(=O)CCC4)C(C)C)ncnc2[nH]1 (stereo not shown): 104.0
4. CNC(=O)Cn1cc(-c2cc3c(NC(c4ccc5c(c4)OCCO5)C(C)C)ncnc3[nH]2)cn1 (stereo not shown): 90.0
5. CNCc1cc(-c2cc3c(N[C@@H](c4ccc5c(c4)S(=O)(=O)CCC5)C(C)C)ncnc3[nH]2)co1: 101.0
6. CC(C)[C@H](Nc1ncnc2[nH]c(-c3cnn(C)c3C#N)cc12)c1ccc2c(c1)NC(=O)CO2 (single isomer, unassigned) [ASAP-0013256]: 102.0
7. CC(C)C(Nc1ncnc2[nH]c(C(=O)NC3CCN(C)C3)cc12)c1ccc2c(c1)S(=O)(=O)CCC2 (stereo not shown): 92.0
8. CNCc1cc(-c2cc3c(N[C@H](c4ccc5c(c4)S(=O)(=O)CCC5)C(C)C)ncnc3[nH]2)co1 (single isomer, unassigned): 96.0

Task: Value lookup for perc_remaining_no_cofactor; key = CC(C)[C@H](Nc1ncnc2[nH]c(C(=O)N[C@H]3CCN(C)C3)cc12)c1ccc2c(c1)S(=O)(=O)CCC2
Output: 97.0

Task: Value lookup for perc_remaining_no_cofactor; key = CC(C)[C@@H](Nc1ncnc2[nH]ccc12)c1ccc2c(c1)S(=O)(=O)CCO2
Output: 111.0

Task: Value lookup for perc_remaining_no_cofactor; key = CC(C)[C@H](Nc1ncnc2[nH]c(-c3cnn(CC(=O)N(C)C)c3)cc12)c1ccc2c(c1)OCCO2 (single isomer, unassigned) [ASAP-0013833]
Output: 102.0

Task: Value lookup for perc_remaining_no_cofactor; key = CC(C)[C@@H](Nc1ncnc2[nH]c(-c3cnn(CC(N)=O)c3)cc12)c1ccc2c(n1)OCCO2 (single isomer, unassigned) [ASAP-0012315]
Output: 102.0

Task: Value lookup for perc_remaining_no_cofactor; key = CC(C)[C@@H](Nc1ncnc2[nH]c(-c3cnn(C)c3)cc12)c1ccc2c(c1)S(=O)(=O)NCC2
Output: 92.0

----------
test: LogD; conditions: pH 7.4; In vitro LogD
propertyMeasured: logd

Examples from the recorded data:
1. CNC(=O)c1c[nH]c2ncnc(N[C@@H](c3ccc4c(c3)OCCO4)C(C)C)c12: 3.6
2. CC(C)(C)[C@H](Nc1ncnc2[nH]c(-c3cnn(CC(N)=O)c3)cc12)c1ccc2c(n1)OCCO2 (racemic) [ASAP-0008648]: 2.7
3. C[C@H](C(=O)O)[C@@H](NC(=O)c1ncnc2[nH]ccc12)c1ccc(Br)cc1: 0.6
4. O=C(Nc1cccc2c(C(=O)N[C@H]3c4ccccc4C[C@H]3C(=O)O)c[nH]c12)NC1CC1 (racemic): -0.05
5. CC(C)[C@@H](Nc1ncnc2[nH]c(-c3cnn(CCC(N)=O)c3)cc12)c1ccc2c(c1)OCCO2: 3.0
6. O=C(O)C[C@H](NC(=O)c1ncnc2[nH]ccc12)c1ccc(Br)cc1: 0.22

Task: Value lookup for logd; key = CC(C)[C@H](Nc1ncnc2[nH]c(-c3cnn(C)c3C#N)cc12)c1ccc2c(n1)OCCO2
Output: 3.7

Task: Value lookup for logd; key = CNCc1cc(-c2cc3c(N[C@@H](c4ccc5c(c4)S(=O)(=O)CCC5)C(C)C)ncnc3[nH]2)co1 [ASAP-0011176]
Output: 2.2

Task: Value lookup for logd; key = CNC(=O)c1c[nH]c2ncnc(N[C@H](c3ccc4c(c3)S(=O)(=O)CCC4)C(C)C)c12 (racemic) [ASAP-0008641]
Output: 2.5

Task: Value lookup for logd; key = CNCc1cc(-c2cc3c(N[C@@H](c4ccc5c(c4)S(=O)(=O)CCC5)C(C)C)ncnc3[nH]2)co1 [ASAP-0010745]
Output: 2.1

Task: Value lookup for logd; key = CNC(=O)c1cc2c(N[C@@H](c3ccc4c(c3)S(=O)(=O)CCC4)C(C)C)ncnc2[nH]1 [ASAP-0008685]
Output: 2.4

Task: Value lookup for logd; key = CC(C)[C@H](Nc1ncnc2[nH]c(-c3cnn(C)c3C#N)cc12)c1ccc2c(c1)S(=O)(=O)CCC2 (single isomer, unassigned)
Output: 3.3

Task: Value lookup for logd; key = CNC(=O)c1cc2c(N[C@@H](c3ccc4c(c3)NC(=O)CO4)C(C)C)ncnc2[nH]1 [ASAP-0011219]
Output: 2.9

Task: Value lookup for logd; key = CC(C)[C@@H](Nc1ncnc2[nH]c(-c3cnn(C)c3C#N)cc12)c1ccc2c(n1)OCCO2
Output: 3.9

Task: Value lookup for logd; key = CC(C)[C@H](Nc1ncnc2[nH]ccc12)c1ccc2c(c1)S(=O)(=O)CCC2
Output: 2.7
